Tested on: OVCAR4
Assay: Euclidean distance of Cell Painting phenotypic profile (signed KS, 77 features) to DMSO centroid (dimensionless distance); 5 or 10 uM (library dependent); higher = stronger phenotypic change vs DMSO (phenoactivity)
Conditions: 48 h
Counter-ions that a name gives are not always drawn.
Quantity Measured: Euclidean distance
Keep it simple and answer with nothing but the number.

Look over these answered cases.
C=CC(=O)Nc1cccc(Oc2nc(Nc3ccc(N4CCN(C)CC4)cc3)nc3ccsc23)c1 : 3.57
CCC[C@@H]1C[C@@H](C(=O)N[C@@H]([C@H]2O[C@H](SC)[C@H](O)[C@@H](O)[C@H]2O)[C@@H](C)O)N(C)C1 [Lincomycin HCl] : 1.31
CCOc1cc2ncc(C#N)c(Nc3ccc(F)c(Cl)c3)c2cc1NC(=O)/C=C/CN(C)C [Pelitinib (EKB-569)] : 2.82
CN(C)CC/C=C1/c2ccccc2COc2ccc(CC(=O)O)cc21 [Olopatadine HCl] : 0.734
OC[C@@H](O)CN1CCN(c2ccccc2)CC1 : 1.12

Now, please, on to the next molecule.
Sample CC(C)N1CCN(c2ccc(OCC3COC(Cn4cncn4)(c4ccc(Cl)cc4Cl)O3)cc2)CC1 (centres undefined) ; Euclidean distance observed: 1.06
